Molecular target: human melanocortin 1 receptor (human, UniProt Q01726 1-317)
Sequence (Q01726 whole entry): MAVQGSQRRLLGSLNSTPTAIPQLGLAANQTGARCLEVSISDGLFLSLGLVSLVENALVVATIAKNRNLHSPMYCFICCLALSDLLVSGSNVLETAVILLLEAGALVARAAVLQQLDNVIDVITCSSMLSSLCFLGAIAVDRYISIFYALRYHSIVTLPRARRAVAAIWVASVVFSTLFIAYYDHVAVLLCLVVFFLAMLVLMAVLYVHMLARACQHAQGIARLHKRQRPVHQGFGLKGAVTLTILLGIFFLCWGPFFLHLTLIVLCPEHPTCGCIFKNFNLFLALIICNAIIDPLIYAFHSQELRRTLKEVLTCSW
Assay: cell-based or functional assay
Positions of bridges follow the written chain, without caps; N, C: chain ends. Non-standard residues stand in square brackets, D forms with d. Pen = CC(C)(S)[C@H](N)C(=O)O; Pip = O=C(O)[C@@H]1CCCCN1; Orn = NCCC[C@H](N)C(=O)O; Thz = O=C(O)[C@@H]1CSCN1; Aze = O=C(O)[C@@H]1CCN1
valueKind: MC1R cAMP EC50 (nM)

binder	valueKind	inequalitySign	measuredNumber
cyclo(C[Pip]H[dF]HWCAKKKW) (disulfide 1-7, also called c[c[Cys-PIP-His-D-Phe-His-Trp-Cys]-Ala-Lys-Lys-Lys-Trp]) [Chem. 83]	MC1R cAMP EC50	>	10
cyclo(CAH[dF]K(Ac)WCAK[dK]KW) (disulfide 1-7; SMILES CC(=O)NCCCC[C@@H]1NC(=O)[C@@H](Cc2ccccc2)NC(=O)[C@H](Cc2c[nH]cn2)NC(=O)[C@H](C)NC(=O)[C@@H]2CSSC[C@H](NC(=O)[C@H](Cc3c[nH]c4ccccc34)NC1=O)C(=O)N[C@@H](C)C(=O)N[C@@H](CCCCN)C(=O)N[C@H](CCCCN)C(=O)N[C@@H](CCCCN)C(=O)N[C@@H](Cc1c[nH]c3ccccc13)C(=O)N2, also called c[c[Cys-Ala-His-D-Phe-AcLys-Trp-Cys]-Ala-Lys-D-Lys-Lys-Trp]) [Chem. 58]	MC1R cAMP EC50	=	3.93
cyclo(CKH[dF]HWCAKKKW) (disulfide 1-7; SMILES C[C@@H]1NC(=O)[C@@H]2CSSC[C@H](NC(=O)[C@H](Cc3c[nH]c4ccccc34)NC(=O)[C@H](CCCCN)NC(=O)[C@H](CCCCN)NC(=O)[C@H](CCCCN)NC1=O)C(=O)N[C@@H](CCCCN)C(=O)N[C@@H](Cc1c[nH]cn1)C(=O)N[C@H](Cc1ccccc1)C(=O)N[C@@H](Cc1c[nH]cn1)C(=O)N[C@@H](Cc1c[nH]c3ccccc13)C(=O)N2, also called c[c[Cys-Lys-His-D-Phe-His-Trp-Cys]-Ala-Lys-Lys-Lys-Trp]) [Chem. 76]	MC1R cAMP EC50	=	21.8
CAHFXWCAHFXW (D-Phe 4, 10; N-MeArg 5, 11; disulphide Cys1-Cys7; head-to-tail amide Cys1-Trp12, also called c[c[Cys-Ala-His-D-Phe-N-MeArg-Trp-Cys]-Ala-His-D-Phe-N-MeArg-Trp]) [Chem. 37]	MC1R cAMP EC50	=	13.1
cyclo(C[Thz]H[dF]HWCA[Orn]E[Orn]R) (disulfide 1-7; SMILES C[C@@H]1NC(=O)[C@@H]2CSSC[C@H](NC(=O)[C@H](CCCNC(=N)N)NC(=O)[C@H](CCCN)NC(=O)[C@H](CCC(=O)O)NC(=O)[C@H](CCCN)NC1=O)C(=O)N1CSC[C@H]1C(=O)N[C@@H](Cc1c[nH]cn1)C(=O)N[C@H](Cc1ccccc1)C(=O)N[C@@H](Cc1c[nH]cn1)C(=O)N[C@@H](Cc1c[nH]c3ccccc13)C(=O)N2) [Chem. 119]	MC1R cAMP EC50	=	99.6
cyclo(CPH[dF]HW[Pen]AKKKR) (disulfide 1-7; SMILES C[C@@H]1NC(=O)[C@H]2NC(=O)[C@H](Cc3c[nH]c4ccccc34)NC(=O)[C@H](Cc3c[nH]cn3)NC(=O)[C@@H](Cc3ccccc3)NC(=O)[C@H](Cc3c[nH]cn3)NC(=O)[C@@H]3CCCN3C(=O)[C@H](CSSC2(C)C)NC(=O)[C@H](CCCNC(=N)N)NC(=O)[C@H](CCCCN)NC(=O)[C@H](CCCCN)NC(=O)[C@H](CCCCN)NC1=O, also called c[c[Cys-Pro-His-D-Phe-His-Trp-Pen]-Ala-Lys-Lys-Lys-Arg]) [Chem. 93]	MC1R cAMP EC50	=	18.2
cyclo(C[Aze]H[dF]HWCAKKKW) (disulfide 1-7; SMILES C[C@@H]1NC(=O)[C@@H]2CSSC[C@H](NC(=O)[C@H](Cc3c[nH]c4ccccc34)NC(=O)[C@H](CCCCN)NC(=O)[C@H](CCCCN)NC(=O)[C@H](CCCCN)NC1=O)C(=O)N1CC[C@H]1C(=O)N[C@@H](Cc1c[nH]cn1)C(=O)N[C@H](Cc1ccccc1)C(=O)N[C@@H](Cc1c[nH]cn1)C(=O)N[C@@H](Cc1c[nH]c3ccccc13)C(=O)N2, also called c[c[Cys-AZE-His-D-Phe-His-Trp-Cys]-Ala-Lys-Lys-Lys-Trp]) [Chem. 82]	MC1R cAMP EC50	=	94.3
cyclo(C[dP]H[dF]RWC[dP]H[dF]RW) (disulfide 1-7; SMILES N=C(N)NCCC[C@@H]1NC(=O)[C@@H](Cc2ccccc2)NC(=O)[C@H](Cc2c[nH]cn2)NC(=O)[C@H]2CCCN2C(=O)[C@@H]2CSSC[C@H](NC(=O)[C@H](Cc3c[nH]c4ccccc34)NC1=O)C(=O)N1CCC[C@@H]1C(=O)N[C@@H](Cc1c[nH]cn1)C(=O)N[C@H](Cc1ccccc1)C(=O)N[C@@H](CCCNC(=N)N)C(=O)N[C@@H](Cc1c[nH]c3ccccc13)C(=O)N2) [Chem. 33]	MC1R cAMP EC50	>	1
cyclo(C[Thz]H[dF]HWCADEAW) (disulfide 1-7; SMILES C[C@@H]1NC(=O)[C@H](CCC(=O)O)NC(=O)[C@H](CC(=O)O)NC(=O)[C@H](C)NC(=O)[C@@H]2CSSC[C@H](NC(=O)[C@H](Cc3c[nH]c4ccccc34)NC1=O)C(=O)N1CSC[C@H]1C(=O)N[C@@H](Cc1c[nH]cn1)C(=O)N[C@H](Cc1ccccc1)C(=O)N[C@@H](Cc1c[nH]cn1)C(=O)N[C@@H](Cc1c[nH]c3ccccc13)C(=O)N2, also called c[c[Cys-THAZ-His-D-Phe-His-Trp-Cys]-Ala-Asp-Glu-Ala-Trp]) [Chem. 107]	MC1R cAMP EC50	>	100
cyclo(C[Thz]H[dF]HWCARERR) (disulfide 1-7; SMILES C[C@@H]1NC(=O)[C@@H]2CSSC[C@H](NC(=O)[C@H](CCCNC(=N)N)NC(=O)[C@H](CCCNC(=N)N)NC(=O)[C@H](CCC(=O)O)NC(=O)[C@H](CCCNC(=N)N)NC1=O)C(=O)N1CSC[C@H]1C(=O)N[C@@H](Cc1c[nH]cn1)C(=O)N[C@H](Cc1ccccc1)C(=O)N[C@@H](Cc1c[nH]cn1)C(=O)N[C@@H](Cc1c[nH]c3ccccc13)C(=O)N2) [Chem. 113]	MC1R cAMP EC50	=	42.2
